biological target: Vascular endothelial growth factor receptor 2 (Homo sapiens); assay: Inhibition of recombinant human N-terminal GST-fused KDR (D807 to V1356 residues) expressed in baculovirus infected […] insect Sf9 cells using poly-EY as substrate after 240 mins by luciferase coupled chemiluminescence assay
Sequence (P35968 whole entry, the tested form may be a part): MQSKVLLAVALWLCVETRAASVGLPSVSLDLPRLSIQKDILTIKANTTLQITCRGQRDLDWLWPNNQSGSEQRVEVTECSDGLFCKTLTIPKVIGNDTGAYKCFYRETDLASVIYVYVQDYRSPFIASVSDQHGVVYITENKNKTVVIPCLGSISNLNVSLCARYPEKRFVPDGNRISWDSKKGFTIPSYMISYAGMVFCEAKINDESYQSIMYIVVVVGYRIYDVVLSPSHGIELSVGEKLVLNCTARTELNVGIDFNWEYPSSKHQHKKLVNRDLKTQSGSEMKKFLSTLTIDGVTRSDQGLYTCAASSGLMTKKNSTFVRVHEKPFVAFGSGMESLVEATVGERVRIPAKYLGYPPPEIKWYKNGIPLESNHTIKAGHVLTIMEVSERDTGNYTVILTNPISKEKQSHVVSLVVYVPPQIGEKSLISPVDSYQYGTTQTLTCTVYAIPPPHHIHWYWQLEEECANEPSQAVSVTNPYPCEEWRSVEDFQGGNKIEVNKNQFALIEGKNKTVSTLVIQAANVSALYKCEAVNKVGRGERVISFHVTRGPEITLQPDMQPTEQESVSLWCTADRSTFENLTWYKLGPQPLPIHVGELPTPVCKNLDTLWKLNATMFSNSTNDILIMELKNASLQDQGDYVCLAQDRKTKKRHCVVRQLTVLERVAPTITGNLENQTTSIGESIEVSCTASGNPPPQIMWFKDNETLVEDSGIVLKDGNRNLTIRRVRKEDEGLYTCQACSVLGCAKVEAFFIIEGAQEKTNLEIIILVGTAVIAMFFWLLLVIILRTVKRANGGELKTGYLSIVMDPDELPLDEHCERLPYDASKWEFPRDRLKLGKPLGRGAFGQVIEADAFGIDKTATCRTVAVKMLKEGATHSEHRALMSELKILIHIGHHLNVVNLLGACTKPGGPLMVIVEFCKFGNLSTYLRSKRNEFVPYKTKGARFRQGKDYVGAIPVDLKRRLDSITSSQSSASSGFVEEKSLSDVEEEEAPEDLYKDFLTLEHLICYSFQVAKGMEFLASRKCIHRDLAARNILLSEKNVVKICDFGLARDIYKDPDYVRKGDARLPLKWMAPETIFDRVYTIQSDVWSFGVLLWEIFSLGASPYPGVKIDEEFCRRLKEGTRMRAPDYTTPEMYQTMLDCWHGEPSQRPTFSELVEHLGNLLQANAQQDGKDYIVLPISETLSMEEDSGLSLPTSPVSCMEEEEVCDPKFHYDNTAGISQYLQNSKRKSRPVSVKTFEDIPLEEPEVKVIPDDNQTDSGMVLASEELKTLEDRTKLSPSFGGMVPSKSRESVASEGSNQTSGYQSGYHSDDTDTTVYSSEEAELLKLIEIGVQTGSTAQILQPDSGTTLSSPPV
reported metric: IC50

Here's what some known entries look like.
compound	assayed system	reported metric	result value
COc1cc2c(Nc3ccc(Cl)c(Cl)c3)ncnc2cc1OCC1CN(CCC2OCCO2)CCO1 (centres undefined)	Vascular endothelial growth factor receptor 2 (Homo sapiens)	IC50	50 to 1000 nM
CCCN1CCOC(COc2cc3ncnc(Nc4ccc(Cl)c(Cl)c4)c3cc2OC)C1 (centres undefined)	Vascular endothelial growth factor receptor 2 (Homo sapiens)	IC50	50 to 1000 nM
C=CCCCN1CCOC(COc2cc3ncnc(Nc4ccc(Cl)c(Cl)c4)c3cc2OC)C1 (centres undefined)	Vascular endothelial growth factor receptor 2 (Homo sapiens)	IC50	< 50 nM
COc1cc2c(Nc3ccc(Cl)c(Cl)c3)ncnc2cc1OCC1CN(S(=O)(=O)c2ccc(C)cc2)CCO1 (centres undefined)	Vascular endothelial growth factor receptor 2 (Homo sapiens)	IC50	50 to 1000 nM
COc1cc2c(Nc3ccc(Cl)c(Cl)c3)ncnc2cc1OCC1CN(S(C)(=O)=O)CCCO1 (centres undefined)	Vascular endothelial growth factor receptor 2 (Homo sapiens)	IC50	50 to 1000 nM
COc1cc2c(Nc3ccc(Cl)c(Cl)c3)ncnc2cc1OCC1CN(S(=O)(=O)CCCCl)CCO1 (centres undefined)	Vascular endothelial growth factor receptor 2 (Homo sapiens)	IC50	50 to 1000 nM
COc1cc2c(Nc3ccc(Cl)c(Cl)c3)ncnc2cc1OCC1CN(S(=O)(=O)c2ccc(F)cc2)CCO1 (centres undefined)	Vascular endothelial growth factor receptor 2 (Homo sapiens)	IC50	50 to 1000 nM
COc1cc2c(Nc3ccc(Cl)c(Cl)c3)ncnc2cc1OC[C@H]1CN2CCC[C@@H]2CO1	Vascular endothelial growth factor receptor 2 (Homo sapiens)	IC50	< 50 nM
COc1cc2c(Nc3ccc(C)c(Br)c3)ncnc2cc1OCC1CN(C)CCO1 (centres undefined)	Vascular endothelial growth factor receptor 2 (Homo sapiens)	IC50	< 50 nM
COc1cc2c(Nc3ccc(Br)c(Cl)c3F)ncnc2cc1OC[C@H]1CN2CCOC[C@H]2CO1	Vascular endothelial growth factor receptor 2 (Homo sapiens)	IC50	< 50 nM

State the recorded IC50 for every item in the following list.
1. COc1cc2c(Nc3ccc(Cl)c(Cl)c3)ncnc2cc1OCC1CN2CSC[C@H]2CO1 (some centres undefined)
2. CCN1CCN(C)CC1COc1cc2ncnc(Nc3ccc(Cl)c(Cl)c3)c2cc1OC (centres undefined)
3. COc1cc2c(Nc3ccc(Cl)c(Cl)c3)ncnc2cc1OCc1nc(CS(=O)(=O)c2ccccn2)no1

Response:
50 to 1000 nM
1000 to 20000 nM
50 to 1000 nM

Request: IC50 lookup needed for COc1cc2c(Nc3ccc(Br)c(Cl)c3)ncnc2cc1O[C@H]1CO[C@H]2[C@@H]1OC[C@@H]2OC(C)=O , thanks.
Response: 1000 to 20000 nM
